test system: NCI-H292 lung cancer cells; assay: FDA drug screening, complete media vs cholesterol-free media with simvastatin (TABLE 2); type: cell-based, human; details: NCI-H292 cells, drug in complete media
Where a name gives a salt, the structure may show the parent alone.
Classification field: 1 = Complete Media at or over 1; 0 = Complete Media under 1.

Decide: Complete Media of CCCCCCc1ccc(O)cc1O [Hexylresorcinol] >= 1? 1

Kindly determine if Complete Media recorded for CC(C(=O)O)c1cccc(Oc2ccccc2)c1 (centres unmarked) [Fenoprofen (Calcium hydrate)] is above or exactly 1. 1

New cases:
Does the compound CC(C)(C)NCC(O)COc1ccccc1C1CCCC1 (single isomer, unassigned; (+)) [(+)-Penbutolol] have recorded Complete Media that is 1 or more? 0

Has CCN(CC)CCOC(=O)C(O)(c1ccccc1)c1ccccc1 [Benactyzine hydrochloride] a recorded Complete Media greater than or equal to 1? 0

Is reported Complete Media greater than or equal to 1 here: FC(F)(F)c1ccc(CNc2ccc(Cc3c[nH]c4ncc(Cl)cc34)cn2)cn1 [Pexidartinib] 1

Reported Complete Media reaches at least 1 for CCCCC(=O)N(Cc1ccc(-c2ccccc2-c2nnn[nH]2)cc1)[C@H](C(=O)O)C(C)C [Valsartan] ? 0

Dear colleague, could you confirm whether C[C@@H]1O[C@@H]1P(=O)(O)O [Fosfomycin (calcium)] has Complete Media at or above 1? 0

Kindly determine if Complete Media recorded for NC[C@H]1O[C@H](O[C@H]2[C@H](O)[C@@H](O[C@H]3O[C@H](CO)[C@@H](O)[C@H](N)[C@H]3O)[C@H](N)C[C@@H]2N)[C@H](N)[C@@H](O)[C@@H]1O [Bekanamycin] is above or exactly 1. 1

Hello, I need to know if CCOc1cc(CC(=O)N[C@@H](CC(C)C)c2ccccc2N2CCCCC2)ccc1C(=O)O [Repaglinide] has measured Complete Media not below 1. Thanks! 0

Dear colleague, could you confirm whether O=c1ccc2ccc(O)c(O)c2o1 [Daphnetin] has Complete Media at or above 1? 0

Dear colleague, could you confirm whether O=S(=O)([O-])c1cc(O)ccc1O.O=S(=O)([O-])c1cc(O)ccc1O.[Ca+2] [Calcium dobesilate] has Complete Media at or above 1? 1

hey, is Complete Media for this one >= 1? CC(=O)NCCCCCC(=O)O [6-Acetamidohexanoic acid] 0

Decide: is the reported value of Complete Media for N#CC[C@H](C1CCCC1)n1cc(-c2ncnc3[nH]ccc23)cn1 [Ruxolitinib (S enantiomer)] equal to or greater than 1? 0

Given the entry N[C@@H](Cc1ccccc1)C(=O)O [L-Phenylalanine] , answer whether its Complete Media meets or surpasses 1. 0

Threshold query (Complete Media >= 1) on C[C@H]1CNCCCN1S(=O)(=O)c1cccc2cncc(F)c12 [Ripasudil] 1

Textbook exercise: given the entry CC(=O)OC[C@H]1O[C@@H](n2ccc(=O)[nH]c2=O)[C@H](OC(C)=O)[C@@H]1OC(C)=O [Uridine triacetate] , state whether its Complete Media is greater than or equal to 1. 0

Item CO[C@H]1/C=C/O[C@@]2(C)Oc3c(C)c(O)c4c(c3C2=O)C2=NC3(CCN(CC(C)C)CC3)NC2=C(NC(=O)/C(C)=C\C=C\[C@H](C)[C@H](O)[C@@H](C)[C@@H](O)[C@@H](C)[C@H](OC(C)=O)[C@@H]1C)C4=O [Rifabutin] with Complete Media of 1 or above? 0

Answer whether Complete Media of CC(C)(CO)[C@H](O)C(=O)NCCC(=O)O.[Na] [D-Pantothenic acid (sodium)] is greater than or equal to 1. 0

Evaluate NC(=O)c1ncn([C@@H]2O[C@H](CO)[C@@H](O)[C@H]2O)n1 [Ribavirin] : Complete Media at minimum 1? 0

Check this compound for Complete Media at or above 1: CCCCN1CCCCC1C(=O)Nc1c(C)cccc1C (centres unmarked) [Bupivacaine (hydrochloride)] 0

State whether the measured Complete Media reaches 1, counting equality as reaching it, for CCCN(CCC)S(=O)(=O)c1ccc(C(=O)O)cc1 [Probenecid] 1

Confirm if Complete Media reported for the compound CCC1=C[C@@H]2[C@H](C1)C[C@]2(CN)CC(=O)O [Mirogabalin] is 1 or above. 0
